TARGET DESC: human PDE5 (Homo sapiens)
Construct: from tissue; host or cells: human platelets from fresh donor blood (platelet lysate)
METHOD NOTES: Inhibition of PDE5 activity (platelet lysate, SPA assay)
Type: biochemical
ASSAY CONDITIONS: 0.5 μM cGMP, read-out: PDE5 Inhibitory values measured as -logIC50 (converted)
PARAMETER MEASURED: IC50

Some solved cases for reference:
>  <COMPOUND SMILES>
COc1ccc(C2=NN(C3CCN(C(=O)[C@@H](Cc4cc(F)cc(F)c4)NC(=O)c4c[nH]c5c(-c6c(OCC7CC7)ccc7c6OCO7)ncnc45)CC3)C(=O)[C@@H]3CCCC[C@H]23)cc1OC

>  <OBSERVED RESULT>
1 to 10 nM

$$$$
>  <COMPOUND SMILES>
COc1ccc(C2=NN(C3CCN(C(=O)[C@@H](Cc4ccccc4Cl)NC(=O)c4c[nH]c5c(-c6c(OCC7CC7)ccc7c6OCO7)ncnc45)CC3)C(=O)[C@@H]3CCCC[C@H]23)cc1OC

>  <OBSERVED RESULT>
< 1 nM

$$$$
>  <COMPOUND SMILES>
COc1ccc(C2=NN(C3CCN(C(=O)C[C@@H](Cc4ccccc4)NC(=O)c4c[nH]c5c(-c6c(OCC7CC7)ccc7c6OCO7)ncnc45)CC3)C(=O)C(C)(C)C2)cc1OC

>  <OBSERVED RESULT>
1 to 10 nM

$$$$
>  <COMPOUND SMILES>
COc1cc(OCC2CC2)c(-c2ncnc3c(C(=O)N[C@H](Cc4ccc(C(C)(C)C)cc4)C(=O)N4CCC(N5N=C(c6ccc(OC)c(OC)c6)[C@H]6CCCC[C@H]6C5=O)CC4)c(C)[nH]c23)cc1F

>  <OBSERVED RESULT>
1 to 10 nM

$$$$
>  <COMPOUND SMILES>
COc1ccc(C2=NN(C3CCN(C(=O)[C@@H](Cc4c[nH]cn4)NC(=O)c4c[nH]c5c(-c6c(OCC7CC7)ccc7c6OCO7)ncnc45)CC3)C(=O)[C@@H]3CCCC[C@H]23)cc1OC

>  <OBSERVED RESULT>
< 1 nM

$$$$

Specify IC50 for CCOc1ccc(C[C@@H](NC(=O)c2c(C)[nH]c3c(-c4c(OCC5CC5)ccc5c4OCO5)ncnc23)C(=O)N2CCC(N3N=C(c4ccc(OC)c(OC)c4)[C@H]4CCCC[C@H]4C3=O)CC2)cc1 and stop.
< 1 nM

Specify IC50 for COc1ccc(C2=NN(C3CCN(C(=O)[C@@H](Cc4ccc(Br)cc4)NC(=O)c4c[nH]c5c(-c6c(OCC7CC7)ccc7c6OCO7)ncnc45)CC3)C(=O)[C@@H]3CCCC[C@H]23)cc1OC and stop.
1 to 10 nM

Specify IC50 for COc1ccc(C2=NN(C3CCN(C(=O)[C@H](C)NC(=O)c4c[nH]c5c(-c6c(OCC7CC7)ccc7c6OCO7)ncnc45)CC3)C(=O)[C@@H]3CCCC[C@H]23)cc1OC and stop.
1 to 10 nM

Specify IC50 for COc1ccc(C2=NN(C3CCN(C(=O)[C@@H](Cc4ccccc4C(F)(F)F)NC(=O)c4c(C)[nH]c5c(-c6c(OCC7CC7)ccc7c6OCO7)ncnc45)CC3)C(=O)[C@@H]3CCCC[C@H]23)cc1OC and stop.
1 to 10 nM

Specify IC50 for COc1ccc(C2=NN(C3CCN(C(=O)[C@H](NC(=O)c4c(C)[nH]c5c(-c6c(OCC7CC7)ccc7c6OCO7)ncnc45)[C@H](C)c4ccccc4)CC3)C(=O)[C@@H]3CCCC[C@H]23)cc1OC and stop.
1 to 10 nM

---

TARGET DESC: human PDE5 (Homo sapiens)
Construct: from tissue; host or cells: human platelets from fresh donor blood (platelet lysate)
METHOD NOTES: Inhibition of PDE5 activity (platelet lysate, SPA assay)
Assay type: biochemical
ASSAY CONDITIONS: 0.5 μM cGMP, read-out: PDE5 Inhibitory values measured as -logIC50 (converted)
IC50 listing for selected compounds.

>  <COMPOUND>
COc1cc(OCC2CC2)c(-c2ncnc3c(C(=O)N[C@H](Cc4ccccc4)C(=O)N4CCC(N5N=C(c6ccc(OC)c(OC)c6)CC(C)(C)C5=O)CC4)c[nH]c23)cc1F [Example 68]

>  <OBSERVED RESULT>
1 to 10 nM

$$$$
>  <COMPOUND>
COc1ccc(C2=NN(C3CCN(C(=O)[C@H](Cc4ccccc4)NC(=O)c4c[nH]c5c(-c6c(OCC7CC7)ccc7c6OCO7)ncnc45)CC3)C(=O)C(C)(C)C2)cc1OC [Example 110]

>  <OBSERVED RESULT>
1 to 10 nM

$$$$

Specify IC50 for COc1ccc(C2=NN(C3CCN(C(=O)[C@H](CC4CCCCC4)NC(=O)c4c[nH]c5c(-c6c(OCC7CC7)ccc7c6OCO7)ncnc45)CC3)C(=O)C(C)(C)C2)cc1OC [Example 94] and stop.
< 1 nM

Specify IC50 for COc1ccc(C2=NN(C3CCN(C(=O)[C@@H](Cc4ccc(C(F)(F)F)cc4)NC(=O)c4c[nH]c5c(-c6c(OCC7CC7)ccc7c6OCO7)ncnc45)CC3)C(=O)[C@@H]3CCCC[C@H]23)cc1OC [Example 49] and stop.
1 to 10 nM

Specify IC50 for COc1ccc(C2=NN(C3CCN(C(=O)CNC(=O)c4c[nH]c5c(-c6c(OCC7CC7)ccc7c6OCO7)ncnc45)CC3)C(=O)[C@@H]3CCCC[C@H]23)cc1OC [Example 59] and stop.
1 to 10 nM

Specify IC50 for COc1ccc(C2=NN(C3CCN(C(=O)[C@@H](Cc4ccccc4)NC(=O)c4c[nH]c5c(-c6c(OCC7CC7)ccc7c6OCO7)ncnc45)CC3)C(=O)C(C)(C)C2)c2c1OC(C)(C)C2 [Example 115] and stop.
1 to 10 nM

Specify IC50 for COc1ccc(C2=NN(C3CCN(C(=O)[C@@H](Cc4ccc(-c5ccccc5)cc4)NC(=O)c4c(C)[nH]c5c(-c6c(OCC7CC7)ccc7c6OCO7)ncnc45)CC3)C(=O)[C@@H]3CCCC[C@H]23)cc1OC [Example 12] and stop.
1 to 10 nM

Specify IC50 for COc1ccc(C2=NN(C3CCN(C(=O)[C@@H](Cc4ccc(-c5ccccc5)cc4)NC(=O)c4c[nH]c5c(-c6c(OCC7CC7)ccc7c6OCO7)ncnc45)CC3)C(=O)[C@@H]3CCCC[C@H]23)cc1OC [Example 13] and stop.
1 to 10 nM

Specify IC50 for COc1ccc(C2=NN(C3CCN(C(=O)[C@@H](Cc4ccc(N5CCC5=O)cc4)NC(=O)c4c[nH]c5c(-c6c(OCC7CC7)ccc7c6OCO7)ncnc45)CC3)C(=O)[C@@H]3CCCC[C@H]23)cc1OC [Example 112] and stop.
< 1 nM

Specify IC50 for COc1ccc(C2=NN(C3CCN(C(=O)[C@H](Cc4cccnc4)NC(=O)c4c[nH]c5c(-c6c(OCC7CC7)ccc7c6OCO7)ncnc45)CC3)C(=O)C(C)(C)C2)c2c1OC(C)(C)C2 [Example 114] and stop.
< 1 nM

---

TARGET DESC: human PDE5 (Homo sapiens)
Construct: from tissue; host or cells: human platelets from fresh donor blood (platelet lysate)
METHOD NOTES: Inhibition of PDE5 activity (platelet lysate, SPA assay)
Type: biochemical
ASSAY CONDITIONS: 0.5 μM cGMP, read-out: PDE5 Inhibitory values measured as -logIC50 (converted)
PARAMETER MEASURED: IC50

>  <COMPOUND SMILES>
COc1ccc(C2=NN(C3CCN(C(=O)[C@H](Cc4c[nH]cn4)NC(=O)c4c[nH]c5c(-c6c(OCC7CC7)ccc7c6OCO7)ncnc45)CC3)C(=O)[C@@H]3CCCC[C@H]23)cc1OC

>  <TARGET DESC>
human PDE5 (Homo sapiens)

>  <IC50>
< 1 nM

$$$$
>  <COMPOUND SMILES>
COc1ccc(C2=NN(C3CCN(C(=O)[C@H](Cc4ccccc4)NC(=O)c4c[nH]c5c(-c6c(OCC7CC7)ccc7c6OCO7)ncnc45)CC3)C(=O)[C@@H]3CCCC[C@H]23)cc1OC

>  <TARGET DESC>
human PDE5 (Homo sapiens)

>  <IC50>
1 to 10 nM

$$$$
>  <COMPOUND SMILES>
CCOc1ccc(C[C@@H](NC(=O)c2c[nH]c3c(-c4c(OCC5CC5)ccc5c4OCO5)ncnc23)C(=O)N2CCC(N3N=C(c4ccc(OC)c(OC)c4)[C@H]4CCCC[C@H]4C3=O)CC2)cc1

>  <TARGET DESC>
human PDE5 (Homo sapiens)

>  <IC50>
< 1 nM

$$$$
>  <COMPOUND SMILES>
COc1ccc(C2=NN(C3CCN(C(=O)[C@@H](Cc4cccc(C)c4)NC(=O)c4c(C)[nH]c5c(-c6c(OCC7CC7)ccc7c6OCO7)ncnc45)CC3)C(=O)[C@@H]3CCCC[C@H]23)cc1OC

>  <TARGET DESC>
human PDE5 (Homo sapiens)

>  <IC50>
< 1 nM

$$$$

Here is another compound to look at.
Specify IC50 for COc1ccc(C2=NN(C3CCN(C(=O)[C@@H](Cc4ccc(F)c(F)c4)NC(=O)c4c(C)[nH]c5c(-c6c(OCC7CC7)ccc7c6OCO7)ncnc45)CC3)C(=O)[C@@H]3CCCC[C@H]23)cc1OC and stop.
1 to 10 nM

Ref: patent US20160108049A1
